# SYSTEM UNDER TEST: BCL-XL (Homo sapiens (Human), UniProt Q07817)
# Sequence (Q07817 other isoform, or with tags, fused parts or gaps): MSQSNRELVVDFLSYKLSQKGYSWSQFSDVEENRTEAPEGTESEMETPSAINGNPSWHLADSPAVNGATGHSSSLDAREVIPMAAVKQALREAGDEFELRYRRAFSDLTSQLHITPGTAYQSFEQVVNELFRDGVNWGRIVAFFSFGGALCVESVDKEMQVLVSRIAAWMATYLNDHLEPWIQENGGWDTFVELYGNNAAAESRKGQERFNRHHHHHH
# ASSAY COMMENT: Protein-protein interaction assay BCL-XL/Bad BH3 peptide (BCL-XL assay, TR-FRET)
# Format: binding
# CONDITIONS USED: His-BCL-XL / Bad BH3 peptide, median
Documented IC50 across a set of compounds
Answer in µM, number only, no unit symbol.

{"COMPOUND": "CCc1c2c(nn1C)C(CCC1CCOCC1)N(C)S(=O)(=O)CCCn1c(C(=O)O)c(CCCOc3cccc4cc(F)ccc34)c3ccc(Cl)c-2c31 (single isomer, unassigned; enantiomer 2) [Example 62]", "UNIT NAME": "µM", "IC50": 18}

Now consider a different compound.
Entry `Cc1c2c(nn1C)CN(C1CC1)S(=O)(=O)CCCn1c(C(=O)O)c(CCCOc3cccc4ccccc34)c3ccc(Cl)c-2c31` — recorded IC50 = 19

====

# SYSTEM UNDER TEST: BCL-XL (Homo sapiens (Human))
# ASSAY COMMENT: Protein-protein interaction assay BCL-XL/Bad BH3 peptide (BCL-XL assay, TR-FRET)
# Format: binding
# CONDITIONS USED: His-BCL-XL / Bad BH3 peptide, median
ASSAY METRIC: IC50

Worked examples follow.
{"MOLECULE": "CCc1c2c(nn1C)CN(C)S(=O)(=O)CCCn1c(C(=O)O)c(CCCOc3cccc4ccccc34)c3ccc(Cl)c-2c31", "SYSTEM UNDER TEST": "BCL-XL (Homo sapiens (Human))", "MEAS VALUE": "> 20 µM"}
{"MOLECULE": "Cc1c2c(nn1C)CN(CCN1CCOCC1)S(=O)(=O)CCCn1c(C(=O)O)c(CCCOc3cccc4ccccc34)c3cccc-2c31 (racemic) [Example 1]", "SYSTEM UNDER TEST": "BCL-XL (Homo sapiens (Human))", "MEAS VALUE": "> 20 µM"}

Hey, BCL-XL (Homo sapiens (Human)) data for Cc1c2c(nn1C)CN(C1CC1)S(=O)(=O)CCCn1c(C(=O)O)c(CCCOc3cccc4cc(F)ccc34)c3ccc(Cl)c-2c31 (single isomer, unassigned; enantiomer 1) [Example 42] : IC50 came out at 18 µM

Hey, BCL-XL (Homo sapiens (Human)) data for CCc1c2c(nn1C)CN(C)S(=O)(=O)CCCn1c(C(=O)O)c(CCCOc3cccc4cc(F)ccc34)c3ccc(F)c-2c31 (single isomer, unassigned; enantiomer 2) [Example 9] : IC50 came out at > 20 µM

Hey, BCL-XL (Homo sapiens (Human)) data for CCc1c2c(nn1C)C(CCC1CCOCC1)N(C)S(=O)(=O)CCCn1c(C(=O)O)c(CCCOc3cccc4cc(F)ccc34)c3ccc(Cl)c-2c31 (racemic) [Example 59] : IC50 came out at 16 µM

====

# Tested on: AMO-1
# ASSAY COMMENT: Antiproliferation assay (Assay 7), AMO-1
# Type: cell-based
# CONDITIONS USED: CellTiter-Glo, 72 hours, several values per example, read-out: Antiproli AMO-1 [M] IC50
Documented IC50 across a set of molecules
Answer in M, number only, no unit symbol.

Worked examples follow.
{"MOLECULE": "CCc1c2c(nn1C)C(N1CCOCC1)CCN(C)S(=O)(=O)CCCn1c(C(=O)O)c(CCCOc3cccc4cc(F)ccc34)c3ccc(Cl)c-2c31 (single isomer, unassigned; enantiomer 1) [Example 70]", "IC50 / M": "7.3e-06"}
{"MOLECULE": "CCc1c2c(nn1C)C(CCC1CCOCC1)N(C)S(=O)(=O)CCCn1c(C(=O)O)c(CCCOc3cccc4cc(F)ccc34)c3ccc(Cl)c-2c31 (racemic) [Example 60]", "IC50 / M": "4.4e-08"}
{"MOLECULE": "Cc1c2c(nn1C)CN(C)S(=O)(=O)CCCn1c(C(=O)O)c(CCCOc3cccc4cc(F)ccc34)c3ccc(F)c-2c31 (single isomer, unassigned; enantiomer 2) [Example 39]", "IC50 / M": "1.4e-06"}
{"MOLECULE": "CCc1c2c(nn1C)C(CCC1CCOCC1)N(C)S(=O)(=O)CCCn1c(C(=O)O)c(CCCOc3cccc4cc(F)ccc34)c3ccc(Cl)c-2c31 (racemic) [Example 59]", "IC50 / M": "2.1e-07"}
{"MOLECULE": "Cc1c2c(nn1C)C(CCN1CCOCC1)N(C)S(=O)(=O)CCCn1c(C(=O)O)c(CCCOc3cccc4cc(F)ccc34)c3ccc(Cl)c-2c31 (single isomer, unassigned; enantiomer 1) [Example 66]", "IC50 / M": "3.7e-06"}
{"MOLECULE": "Cc1c2c(nn1C)CNS(=O)(=O)CCCn1c(C(=O)O)c(CCCOc3cccc4cc(F)ccc34)c3ccc(Cl)c-2c31 (single isomer, unassigned; enantiomer 2) [Example 52]", "IC50 / M": "1.1e-05"}
{"MOLECULE": "CCc1c2c(nn1C)C(CCC1CCOCC1)N(C)S(=O)(=O)CCCn1c(C(=O)O)c(CCCOc3cccc4cc(F)ccc34)c3ccc(Cl)c-2c31 (single isomer, unassigned; enantiomer 2) [Example 62]", "IC50 / M": "3.8e-06"}
{"MOLECULE": "Cc1c2c(nn1C)CN(C)S(=O)(=O)CCCn1c(C(=O)O)c(CCCOc3cccc4cc(F)ccc34)c3ccc(F)c-2c31 (single isomer, unassigned; enantiomer 1) [Example 38]", "IC50 / M": "2.9e-05"}
{"MOLECULE": "CCc1c2c(nn1C)CN(C)S(=O)(=O)CCCn1c(C(=O)O)c(CCCOc3ccc(F)c4ccccc34)c3ccc(F)c-2c31 (racemic) [Example 35]", "IC50 / M": "6.6e-06"}

Now consider a different molecule.
Hey, AMO-1 data for CCc1c2c(nn1C)CN(C)S(=O)(=O)CCCn1c(C(=O)O)c(CCCOc3cccc4c3CCC4)c3ccc(F)c-2c31 (racemic) [Example 32] : IC50 came out at 3.9e-06

Values from patent US11401278B2
